All figures here come from patent EP4810493A1.

- Target or test system: M4 receptor (Homo sapiens)
- Construct: expressed in transfected cells
- Sequence (P08173 whole entry): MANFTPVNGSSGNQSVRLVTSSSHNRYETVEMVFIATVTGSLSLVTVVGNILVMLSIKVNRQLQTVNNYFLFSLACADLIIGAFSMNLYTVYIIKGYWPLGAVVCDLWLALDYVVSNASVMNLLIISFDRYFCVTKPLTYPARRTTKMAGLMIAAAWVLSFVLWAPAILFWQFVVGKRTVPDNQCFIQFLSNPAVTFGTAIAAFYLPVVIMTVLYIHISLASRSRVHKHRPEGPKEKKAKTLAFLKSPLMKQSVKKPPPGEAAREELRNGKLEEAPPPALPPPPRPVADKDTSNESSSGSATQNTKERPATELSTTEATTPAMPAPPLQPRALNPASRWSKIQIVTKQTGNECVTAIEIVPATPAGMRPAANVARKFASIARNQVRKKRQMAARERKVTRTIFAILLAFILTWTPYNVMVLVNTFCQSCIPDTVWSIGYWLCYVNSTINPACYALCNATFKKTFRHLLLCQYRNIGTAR
- Assay name: Calcium flux (FLIPR) potentiation assay in cells stably expressing M4 receptor
- Format: cell-based
- Protocol conditions: CHO-K1/M4/Gα15 cells; potentiation of acetylcholine (EC20) calcium flux; read-out: M4 FLIPR EC50
Readout: pEC50
Conceptually, pEC50 converts a concentration in mol/L into minus its log10.

Record excerpt, results attached:
> print(dat)
                      smiles.representation  measured.number
1  Cc1c2c(c3ncnn3c1C)CN(C(=O)CC1CN(c3ccnc(S(=O)(=O)N(C)C)c3)C1)C2             7.97
2  Cc1c2c(c3nnnn3c1C)CN(C(=O)OC1CN(c3ccnc(OC(F)F)c3)C1)C2             7.24
3  Cc1c2c(c3ncnn3c1C)CN(C(=O)CC1CN(c3cc(C(F)(F)F)ncc3Cl)C1)C2             7.48
4  Cc1c2c(c3nccn3c1C)CN(C(=O)CC1CN(c3ccnc(OC(F)F)c3)C1)C2             7.13
5  Cc1c2c(c3ncnn3c1C)CN(C(=O)CC1CN(c3ccnc(OC(F)F)c3)C1)C2             7.86
6  Cc1c2c(c3nccn3c1C)CN(C(=O)OC1CN(c3ccnc(C(F)F)c3)C1)C2             7.41

Ask: Which measured pEC50 belongs to Cc1c2c(c3nc(C4CC4)nn3c1C)CN(C(=O)CC1CN(c3ccnc(C(F)(F)F)c3)C1)C2 , tested on M4 receptor (Homo sapiens)?
Result: 7.51

Ask: Item: COc1cc(N2CC(CC(=O)N3Cc4c(C)c(C)n5nccc5c4C3)C2)c(F)cn1 Test system: M4 receptor (Homo sapiens) Read-out: pEC50 Value: ?
Result: 7.27

====

In this section, each of the molecules is paired with its reported AUC(0-inf).
- Assay name: Pharmacokinetic determination in SD rats
- Protocol conditions: rat, in vivo, po; male SD rats, p.o. 5 mg/kg
Report as a plain number; the unit ng·h/mL is understood.

> print(dat)
                      smiles.representation     readout  measured.number
1  Cc1c2c(c3ncnn3c1C)CN(C(=O)OC1CN(c3ccnc(OC(F)F)c3)C1)C2  AUC(0-inf)            12200
2  CCOc1ccc(N2CC(CC(=O)N3Cc4c(C)c(C)n5ncnc5c4C3)C2)cn1  AUC(0-inf)             4080
3  Cc1c2c(c3ncnn3c1C)CN(C(=O)CC1CN(c3ccnc(OC4CC4)c3)C1)C2  AUC(0-inf)             3170
4  Cc1c2c(c3ncnn3c1C)CN(C(=O)OC1CN(c3ccc4nc(C(F)F)cn4n3)C1)C2  AUC(0-inf)            16100
5  Cc1c2c(n3ncnc3c1Cl)CN(C(=O)CC1CN(c3ncc(C(F)(F)F)cn3)C1)C2  AUC(0-inf)            26700

Ask: Field request: AUC(0-inf) | item: Cc1c2c(n3ncnc3c1Cl)CN(C(=O)CC1CN(c3ncc(F)cn3)C1)C2
Result: 11400

Ask: Recorded AUC(0-inf) of Cc1c2c(c3nccn3c1C)CN(C(=O)OC1CN(c3ccnc(C(F)F)c3)C1)C2 , please.
Result: 8540

Ask: Query: AUC(0-inf); subject: Cc1c2c(c3ncnn3c1C)CN(C(=O)CC1CN(c3ncc(C(F)(F)F)cn3)C1)C2
Result: 11000

Ask: Requested field: AUC(0-inf). Item: Cc1cn2nc(N3CC(OC(=O)N4Cc5c(C)c(C)n6ncnc6c5C4)C3)ccc2n1
Result: 16300

Ask: Reported AUC(0-inf) for Cc1c2c(c3ncnn3c1C)CN(C(=O)CC1CN(c3cnc4c(c3)COC4)C1)C2 : what is it?
Result: 12000

Ask: So what does the record say about AUC(0-inf) for Cc1c2c(c3ccnn3c1C)CN(C(=O)OC1CN(c3ccnc(C(F)F)c3)C1)C2 ?
Result: 9320

Ask: Suppose we examine the molecule Cc1c2c(c3ncnn3c1C)CN(C(=O)OC1CN(c3ccnc(C(F)(F)F)c3)C1)C2 ; what AUC(0-inf) value has been reported?
Result: 17500

Ask: Request the reported AUC(0-inf) associated with Cc1c2c(c3ncnn3c1C)CN(C(=O)CC1CN(c3ccc4nc(C(F)F)cn4n3)C1)C2
Result: 3220

Ask: Endpoint output: AUC(0-inf) of CCn1ncc2cc(N3CC(CC(=O)N4Cc5c(C)c(C)n6ncnc6c5C4)C3)ccc21 . Value?
Result: 5300

Ask: What value of AUC(0-inf) has been recorded for this entry: Cc1c2c(c3ncnn3c1C)CN(C(=O)CC1CN(c3ccnc(OC(F)F)c3)C1)C2
Result: 10800

Ask: Recorded AUC(0-inf) of COc1cc(N2CC(OC(=O)N3Cc4c(C)c(C)n5ncnc5c4C3)C2)ccn1 , please.
Result: 7050

Ask: # AUC(0-inf) lookup, item Cc1c2c(c3ccnn3c1C)CN(C(=O)CC1CN(c3ccnc(C(F)(F)F)c3)C1)C2
Result: 6150
